Experiment: yeast display, Sf9 membrane polyspecificity reagent, FACS + sequencing; frameworks hold sequencing errors

query.sequence: QVQLVESGGGLVQAGGSLRLSCAASGRTLGYKAMVWYRQAPGKERELVAAISWSGGATYYADSVKGRFTISRDNAKNTVYLQMNSLKPEDTAVYYCAALNNRYPLYNYWGQGTQVTVSS
polyreactivity (PSR sort gate): low polyreactivity
--
query.sequence: QVQLVESGGGLVQAGGSLRLSCAASGRIFFRYAMGWYIQAPGKEREFVAAISGSAGSTYYADSVKGRFKISRDNAKNTVYLQMNSLKPEDTAVYYCAARKAKVSNGLKYDYWGQGTQVTVSS
polyreactivity (PSR sort gate): low polyreactivity
--
query.sequence: QVQLVETGGGLVQAGGILRLSCAASGRIFGYNTMGWYRQAPGKERELVARISYDVDSTYYADSVKGRFTISRDNAKNTVYLQMNSLKPEDTAVYYCNARRSNLGSYIEYFGFDYWGQGTQVTVSS
polyreactivity (PSR sort gate): low polyreactivity
--
query.sequence: QVQLVESGGGLVQAGGSLRLSCAASGRTFVVNAMGWYRQAPGKEREFVAAISYRGDSTYYADSVKGRFTISRDNAKNTVYLQMNSLKPEDSAVYYCAARVLGPGRRYYYWGQGTQVTLSS
polyreactivity (PSR sort gate): high polyreactivity
--
query.sequence: QVQLVESGGGLVQAGGSLRLRCAASGFIFWMNAMGWYRQAPGKERELVAAISIGGRTNYADSVKGRFTISRDNSKNTVYLQMNSLKPEDTAVYYCNKDYRSVYKGGGFDYWGQGTQVTVST
polyreactivity (PSR sort gate): low polyreactivity
--
query.sequence: QVQLVESGGGLVQAGGSLRLSCAASGLTFKSYAMGWYRQAPGKERELVAVISSSGGRTYYADSVKGRFTISRDNAKNTVYLQMNSLKPEDTAVYYCAADGSYGKWGGHAMYYWGQGTQVTVSS
polyreactivity (PSR sort gate): high polyreactivity
--
query.sequence: QVQLVESGGGLVQAGGSLRLSCAASGSIFYRYAMGWYRQAPGKERELVAAIRSRTGRTYYADSVKGRFTITRDNAKNTVYLQMNSLKQEDTAVYYCAADKYFSARFDYWGQGTQVTVSS
polyreactivity (PSR sort gate): high polyreactivity
--
query.sequence: QVQLVESGGGLVQAGGSLRLSCAASGRIFLVNAMGWYRQAPGKEREFVAAITDNTGSTYYADSVKGRFTISRDNAKNTVYLQMNSLKPEDTAVYYCAKQRGNKRIGYDSWGQGTQVTVSS
polyreactivity (PSR sort gate): low polyreactivity
--
query.sequence: QVQLVESGGGLVQAGGSLRLSCAASGSTFSGNAMGWYRQAPGKERELVAAITSSGGSTYYADSVKGRFTISRDNAKNTVYLQMNSLKPEDTAVYYCAAKSRRTRRSYYWGQGTQVTVSS
polyreactivity (PSR sort gate): high polyreactivity
--
query.sequence: QVQLVESGRGLVQAGGSLRLSCGASGRTFGYYGMVGYRQATGKERELVASISRRGVSTYYADSVKGRFTISRDNAKNTVYLQMNSLKPEDTAVYYCAKDYWGYKYDYWGKGTQVTVSS
polyreactivity (PSR sort gate): high polyreactivity
--
query.sequence: QVQLVESGGGLVQAGGSLRLSCAASGITFTGYAMGWYRPAPGKERELGAAITWSSGSTYYADSVKGRFTISRDNAKNTVYLQMNSLKPEDTAVYYCAAEVNVGTLLLSVIVEDGDYWGQGTQVTVSS
polyreactivity (PSR sort gate): low polyreactivity
--
query.sequence: QFQLVESGGGLVQAGGSLRLSCAASGRTFWWYAMGWYRQAPGKERELVAAITSRGTTYYADSVKGRFTISRDNAKNTVYLQMNSLKPEDTAVYYCNAVQATRYTDYDYWGQGTQVTVSS
polyreactivity (PSR sort gate): high polyreactivity
--
query.sequence: QVQLVESGGGLVQAGGSLRLSCAASGSISRFNTMGWYRQAPGKERELVAAITVSGGSTYYADSVKGRFTISRDNAKNTVYLQMNSLKPEDTAVYYCAKEAWRYRLNFRYNYWGQGTQVTVSS
polyreactivity (PSR sort gate): low polyreactivity
--
query.sequence: QVQLVESGGGLVQAGGTLRLSCAASGSIFTHYAMGWYRQAPGKERELVAAISRRGGSTYYADSVKGRFTNSRDNAKNTVYLQMNSLKPEDSAVYYCAKSPDTAKEYDYWGQGTQVTVSS
polyreactivity (PSR sort gate): high polyreactivity
--
query.sequence: QVQLVESGGGLVQAGGSLRLSCAASGRTFLLYAMGWYRQAPGKERELVAAITRGGRTNYADSVKGRFTISRDNAKNTVYLQMNSLKPEDTAVYYCAARYVERHTDYYYWGQGTQVTVSS
polyreactivity (PSR sort gate): low polyreactivity
